- measurement target: human somatostatin receptor subtype 2 (Homo sapiens, UniProt P30874)
- Construct: expressed in transfected cells
- Sequence (P30874 whole entry): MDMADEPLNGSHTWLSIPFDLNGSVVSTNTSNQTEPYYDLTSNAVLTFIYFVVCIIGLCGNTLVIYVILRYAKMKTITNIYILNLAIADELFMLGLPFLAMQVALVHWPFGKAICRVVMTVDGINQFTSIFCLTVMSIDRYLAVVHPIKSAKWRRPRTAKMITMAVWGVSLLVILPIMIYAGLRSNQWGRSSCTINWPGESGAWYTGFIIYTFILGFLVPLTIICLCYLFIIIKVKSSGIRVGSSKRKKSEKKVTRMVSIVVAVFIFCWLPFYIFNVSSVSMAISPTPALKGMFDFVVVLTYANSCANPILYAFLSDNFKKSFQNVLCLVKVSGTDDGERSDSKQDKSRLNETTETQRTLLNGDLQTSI
- assay summary: Functional assay for SSTR2 agonists (HTRF cAMP)
- Format: cell-based
- stated conditions: CHO-K1 cells stably expressing human SST2; NKH477-stimulated cAMP; 20 min at 37 C; read-out: hSST2 cAMP Avg EC50
observable: EC50 (pM)
Expressed in pM, but write only the number.

CC[C@H](C)[C@@H]([C@@H](CC(=O)N1CCC[C@H]1[C@H](OC)[C@@H](C)C(=O)N[C@H](C)[C@@H](O)c1ccccc1)OC)N(C)C(=O)[C@@H](NC(=O)[C@H](C(C)C)N(C)C(=O)OCc1ccc(NC(=O)[C@H](CCCNC(N)=O)NC(=O)[C@@H](NC(=O)C[C@@H](N)C(=O)NCCOCCC(=O)NCCNc2ncc(-c3cc(C)cc(F)c3)c(N3CCC(N)CC3)c2-c2nc3ccc(Cl)cc3[nH]2)C(C)C)cc1C(=O)N1CC(C(=O)O)C1)C(C)C ... 60

Prompt line: // EC50 lookup, key: CC[C@H](C)[C@@H]([C@@H](CC(=O)N1CCC[C@H]1[C@H](OC)[C@@H](C)C(=O)N[C@H](C)[C@@H](O)c1ccccc1)OC)N(C)C(=O)[C@@H](NC(=O)[C@H](C(C)C)N(C)C(=O)OCc1ccc(NC(=O)[C@H](CCCNC(N)=O)NC(=O)[C@@H](NC(=O)CCCC(=O)N(C)CC(=O)NCCNc2ncc(-c3cc(C)cc(F)c3)c(N3CCC(N)CC3)c2-c2nc3ccc(Cl)cc3[nH]2)C(C)C)c(O[C@@H]2O[C@H](C(=O)NCCN)[C@@H](O)[C@H](O)[C@H]2O)c1)C(C)C
Response line: 110

* * *

- measurement target: SST2 (Homo sapiens)
- Construct: host or cells: PathHunter CHO-K1 SST2 cells
- Sequence (P30874 whole entry): as above
- assay summary: PathHunter CHO-K1 SST2 Internalization Assay
- Type: cell-based
- stated conditions: PathHunter CHO-K1 SST2 cells; 90 min at 37 C; luminescence; read-out: Internalization EC50
So basically, if EC50 comes in under 4 nM it's label 1, and if it's 4 nM or more it's label 0.

Below, 3 molecules whose answers are already recorded.
CC[C@H](C)[C@@H]([C@@H](CC(=O)N1CCC[C@H]1[C@H](OC)[C@@H](C)C(=O)N[C@H](C)[C@@H](O)c1ccccc1)OC)N(C)C(=O)[C@@H](NC(=O)[C@H](C(C)C)N(C)C(=O)OCc1ccc(NC(=O)[C@H](C)NC(=O)[C@@H](NC(=O)CCOCCN2CCC(C(=O)NCCNc3ncc(-c4cc(C)cc(F)c4)c(N4CCC(N)CC4)c3-c3nc4ccc(Cl)cc4[nH]3)CC2)C(C)C)c(O[C@@H]2O[C@H](C(=O)O)[C@@H](O)[C@H](O)[C@H]2O)c1)C(C)C [Compound 93] ... label 0
CC[C@H](C)[C@@H]([C@@H](CC(=O)N1CCC[C@H]1[C@H](OC)[C@@H](C)C(=O)N[C@H](C)[C@@H](O)c1ccccc1)OC)N(C)C(=O)[C@@H](NC(=O)[C@H](C(C)C)N(C)C(=O)OCc1ccc(NC(=O)[C@H](CCCNC(N)=O)NC(=O)[C@@H](NC(=O)c2cn(CCOCCC(=O)NCCNc3ncc(-c4cc(C)cc(F)c4)c(N4CCC(N)CC4)c3-c3nc4ccc(Cl)cc4[nH]3)nn2)C(C)C)c(O[C@@H]2C[C@H](C(=O)O)[C@@H](O)[C@H](O)[C@H]2O)c1)C(C)C [Compound 131] ... label 0
CC[C@H](C)[C@@H]([C@@H](CC(=O)N1CCC[C@H]1[C@H](OC)[C@@H](C)C(=O)N[C@H](C)[C@@H](O)c1ccccc1)OC)N(C)C(=O)[C@@H](NC(=O)[C@H](C(C)C)N(C)C(=O)OCc1ccc(NC(=O)[C@H](CCCNC(N)=O)NC(=O)[C@@H](NC(=O)c2cc(NCCOCCOCCOCCC(=O)NCCNc3ncc(-c4cc(C)cc(F)c4)c(N4CCC(N)CC4)c3-c3nc4ccc(Cl)cc4[nH]3)cc(C(=O)NCCN)c2)C(C)C)cc1)C(C)C [Compound 179] ... label 0

Prompt line: Take the molecule CC[C@H](C)[C@@H]([C@@H](CC(=O)N1CCC[C@H]1[C@H](OC)[C@@H](C)C(=O)N[C@H](C)[C@@H](O)c1ccccc1)OC)N(C)C(=O)[C@@H](NC(=O)[C@H](C(C)C)N(C)C(=O)OCc1ccc(NC(=O)[C@H](CCCNC(N)=O)NC(=O)[C@@H](NC(=O)CCCCC(=O)NCCNc2ncc(-c3cc(C)cc(F)c3)c(N3CCC(N)CC3)c2-c2nc3ccc(Cl)cc3[nH]2)C(C)C)cc1C(=O)NCC(=O)O)C(C)C [Compound 72] and say whether its EC50 is less than 4 nM.
Response line: label 0

Prompt line: Take the molecule CC[C@H](C)[C@@H]([C@@H](CC(=O)N1CCC[C@H]1[C@H](OC)[C@@H](C)C(=O)N[C@H](C)[C@@H](O)c1ccccc1)OC)N(C)C(=O)[C@@H](NC(=O)[C@H](C(C)C)N(C)C(=O)OCc1ccc(NC(=O)[C@H](C)NC(=O)[C@@H](NC(=O)C[C@@H](N)C(=O)NCCOCCOCCC(=O)NCCNc2ncc(-c3cc(C)cc(F)c3)c(N3CCC(N)CC3)c2-c2nc3ccc(Cl)cc3[nH]2)C(C)C)c(O[C@@H]2O[C@H](C(=O)O)[C@@H](O)[C@H](O)[C@H]2O)c1)C(C)C [Compound 136] and say whether its EC50 is less than 4 nM.
Response line: label 1

Prompt line: Take the molecule CC[C@H](C)[C@@H]([C@@H](CC(=O)N1CCC[C@H]1[C@H](OC)[C@@H](C)C(=O)N[C@H](C)[C@@H](O)c1ccccc1)OC)N(C)C(=O)[C@@H](NC(=O)C(C(C)C)N(C)C(=O)OCc1ccc(NC(=O)[C@H](CCCNC(N)=O)NC(=O)[C@@H](NC(=O)CCOCCC(=O)NCCNc2ncc(-c3cc(C)cc(F)c3)c(N3CCC(N)CC3)c2-c2nc3ccc(Cl)cc3[nH]2)C(C)C)c(O[C@@H]2O[C@H](C(=O)N3CCN(CC(=O)O)CC3)[C@@H](O)[C@H](O)[C@H]2O)c1)C(C)C (stereo partly drawn) [Compound 227] and say whether its EC50 is less than 4 nM.
Response line: label 1

Prompt line: Take the molecule CC[C@H](C)[C@@H]([C@@H](CC(=O)N1CCC[C@H]1[C@H](OC)[C@@H](C)C(=O)N[C@H](C)[C@@H](O)c1ccccc1)OC)N(C)C(=O)[C@@H](NC(=O)[C@H](C(C)C)N(C)C(=O)OCc1ccc(NC(=O)[C@H](C)NC(=O)[C@@H](NC(=O)CN(C)C(=O)CCOCCC(=O)NCCNc2ncc(-c3cc(C)cc(F)c3)c(N3CCC(N)CC3)c2-c2nc3ccc(Cl)cc3[nH]2)C(C)C)c(O[C@@H]2O[C@H](C(=O)O)[C@@H](O)[C@H](O)[C@H]2O)c1)C(C)C [Compound 111] and say whether its EC50 is less than 4 nM.
Response line: label 0

Prompt line: Take the molecule CC[C@H](C)[C@@H]([C@@H](CC(=O)N1CCC[C@H]1[C@H](OC)[C@@H](C)C(=O)N[C@H](C)[C@@H](O)c1ccccc1)OC)N(C)C(=O)[C@@H](NC(=O)[C@H](C(C)C)N(C)C(=O)OCc1ccc(NC(=O)[C@H](CCCNC(N)=O)NC(=O)[C@@H](NC(=O)CCOCCC(=O)NCCNc2ncc(-c3cc(C)cc(F)c3)c(N3CCC(N)CC3)c2-c2nc3ccc(Cl)cc3[nH]2)C(C)C)c(O[C@H]2[C@H](O)[C@@H](O)[C@H](O)[C@@H](C(=O)N(C)CC(=O)N(C)CC(=O)N(C)CC(=O)O)[C@H]2O)c1)C(C)C [Compound 236] and say whether its EC50 is less than 4 nM.
Response line: label 0

Prompt line: Take the molecule CC[C@H](C)[C@@H]([C@@H](CC(=O)N1CCC[C@H]1[C@H](OC)[C@@H](C)C(=O)N[C@H](C)[C@@H](O)c1ccccc1)OC)N(C)C(=O)[C@@H](NC(=O)[C@H](C(C)C)N(C)C(=O)OCc1ccc(NC(=O)[C@H](C)NC(=O)[C@@H](NC(=O)CCOCCC(=O)NCCNc2ncc(-c3cc(C)cc(F)c3)c(N3CCC(N)CC3)c2-c2nc3ccc(Cl)cc3[nH]2)C(C)C)c(O[C@@H]2O[C@H](C(N)=O)[C@@H](O)[C@H](O)[C@H]2O)c1)C(C)C [Compound 34] and say whether its EC50 is less than 4 nM.
Response line: label 0

* * *

- measurement target: human somatostatin receptor subtype 2 (Homo sapiens)
- Construct: expressed in transfected cells
- assay summary: Functional assay for SSTR2 agonists (HTRF cAMP)
- Format: cell-based
- stated conditions: CHO-K1 cells stably expressing human SST2; NKH477-stimulated cAMP; 20 min at 37 C; read-out: hSST2 cAMP Avg EC50
observable: EC50 (nM)
Expressed in nM, but write only the number.

Prompt line: // EC50 lookup, key: CC[C@H](C)[C@@H]([C@@H](CC(=O)N1CCC[C@H]1[C@H](OC)[C@@H](C)C(=O)N[C@H](C)[C@@H](O)c1ccccc1)OC)N(C)C(=O)[C@@H](NC(=O)[C@H](C(C)C)N(C)C(=O)OCc1ccc(NC(=O)[C@H](CCCNC(N)=O)NC(=O)[C@@H](NC(=O)c2cc(NCCOCCC(=O)NCCNc3ncc(-c4cc(C)cc(F)c4)c(N4CCC(N)CC4)c3-c3nc4ccc(Cl)cc4[nH]3)cc(C(=O)NCCN(CC(=O)O)CC(=O)O)c2)C(C)C)cc1C(=O)NCCN)C(C)C
Response line: 0.26
